target: Metabotropic glutamate receptor 2 (Homo sapiens, UniProt Q14416)
Sequence (Q14416 whole entry): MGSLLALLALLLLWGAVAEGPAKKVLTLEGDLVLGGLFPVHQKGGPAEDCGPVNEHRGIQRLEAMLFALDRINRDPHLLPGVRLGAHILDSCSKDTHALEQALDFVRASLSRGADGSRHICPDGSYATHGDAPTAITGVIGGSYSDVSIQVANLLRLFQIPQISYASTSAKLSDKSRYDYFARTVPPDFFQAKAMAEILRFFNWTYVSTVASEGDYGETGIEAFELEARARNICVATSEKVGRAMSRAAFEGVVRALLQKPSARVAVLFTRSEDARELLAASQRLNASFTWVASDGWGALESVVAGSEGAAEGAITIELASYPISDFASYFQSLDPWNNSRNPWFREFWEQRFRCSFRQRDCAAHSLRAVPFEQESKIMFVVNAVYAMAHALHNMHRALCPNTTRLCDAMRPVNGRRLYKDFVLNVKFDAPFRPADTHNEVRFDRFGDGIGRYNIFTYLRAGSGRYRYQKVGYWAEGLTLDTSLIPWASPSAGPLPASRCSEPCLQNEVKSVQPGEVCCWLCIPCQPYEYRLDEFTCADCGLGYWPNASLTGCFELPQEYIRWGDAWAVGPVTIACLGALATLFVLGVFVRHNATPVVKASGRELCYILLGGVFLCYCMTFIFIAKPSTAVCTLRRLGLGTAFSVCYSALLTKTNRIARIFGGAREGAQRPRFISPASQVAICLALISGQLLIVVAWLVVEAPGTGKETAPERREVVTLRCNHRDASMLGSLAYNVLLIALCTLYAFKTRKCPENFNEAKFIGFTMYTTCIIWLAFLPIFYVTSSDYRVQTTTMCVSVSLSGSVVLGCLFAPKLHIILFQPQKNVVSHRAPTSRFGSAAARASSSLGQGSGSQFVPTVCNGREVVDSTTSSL
quantity: Ki

Quick note, Ki for COC(=O)[C@@H]1C[C@H](OC(C)=O)C(=O)[C@H]2[C@@]1(C)CC[C@H]1C(=O)O[C@H](c3ccoc3)C[C@]21C landed at > 10 µM

###

target: UniProt:P08908
Sequence (P08908 whole entry): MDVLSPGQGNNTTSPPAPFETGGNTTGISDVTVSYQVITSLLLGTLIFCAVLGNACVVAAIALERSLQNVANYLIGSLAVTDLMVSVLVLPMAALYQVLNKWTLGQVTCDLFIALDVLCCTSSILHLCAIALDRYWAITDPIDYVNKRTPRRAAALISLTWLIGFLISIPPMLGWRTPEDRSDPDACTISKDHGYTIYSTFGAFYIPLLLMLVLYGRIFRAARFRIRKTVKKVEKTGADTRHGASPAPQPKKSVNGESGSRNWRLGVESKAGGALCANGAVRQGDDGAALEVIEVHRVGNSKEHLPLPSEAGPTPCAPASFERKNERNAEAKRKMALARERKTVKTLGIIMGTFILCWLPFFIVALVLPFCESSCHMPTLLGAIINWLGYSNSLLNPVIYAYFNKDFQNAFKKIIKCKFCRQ
quantity: Ki

Quick note, Ki for COC(=O)[C@@H]1C[C@H](OC(C)=O)C(=O)[C@H]2[C@@]1(C)CC[C@H]1C(=O)O[C@H](c3ccoc3)C[C@]21C landed at > 10 µM

###

molecular target: Histamine H1 receptor (Homo sapiens)
Sequence (P35367 whole entry): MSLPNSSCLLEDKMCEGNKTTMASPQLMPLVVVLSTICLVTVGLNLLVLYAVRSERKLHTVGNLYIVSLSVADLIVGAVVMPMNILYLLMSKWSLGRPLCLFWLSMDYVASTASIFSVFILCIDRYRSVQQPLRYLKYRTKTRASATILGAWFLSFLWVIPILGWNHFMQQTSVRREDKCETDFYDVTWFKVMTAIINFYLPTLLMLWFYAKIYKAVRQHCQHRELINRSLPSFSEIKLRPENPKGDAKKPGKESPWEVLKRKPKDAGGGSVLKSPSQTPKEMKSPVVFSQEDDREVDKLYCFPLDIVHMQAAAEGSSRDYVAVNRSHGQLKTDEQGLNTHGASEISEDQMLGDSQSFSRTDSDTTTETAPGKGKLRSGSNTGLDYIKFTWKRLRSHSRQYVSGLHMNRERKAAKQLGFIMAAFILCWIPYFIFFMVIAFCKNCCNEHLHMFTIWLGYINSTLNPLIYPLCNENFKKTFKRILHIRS
quantity: Ki

Quick note, Ki for COC(=O)[C@@H]1C[C@H](OC(C)=O)C(=O)[C@H]2[C@@]1(C)CC[C@H]1C(=O)O[C@H](c3ccoc3)C[C@]21C landed at > 10 µM

###

target: D(2) dopamine receptor (Homo sapiens)
quantity: Ki

Quick note, Ki for COC(=O)[C@@H]1C[C@H](OC(C)=O)C(=O)[C@H]2[C@@]1(C)CC[C@H]1C(=O)O[C@H](c3ccoc3)C[C@]21C landed at > 10 µM

###

biological target: 5-hydroxytryptamine receptor 6 (Homo sapiens)
Sequence (P50406 whole entry): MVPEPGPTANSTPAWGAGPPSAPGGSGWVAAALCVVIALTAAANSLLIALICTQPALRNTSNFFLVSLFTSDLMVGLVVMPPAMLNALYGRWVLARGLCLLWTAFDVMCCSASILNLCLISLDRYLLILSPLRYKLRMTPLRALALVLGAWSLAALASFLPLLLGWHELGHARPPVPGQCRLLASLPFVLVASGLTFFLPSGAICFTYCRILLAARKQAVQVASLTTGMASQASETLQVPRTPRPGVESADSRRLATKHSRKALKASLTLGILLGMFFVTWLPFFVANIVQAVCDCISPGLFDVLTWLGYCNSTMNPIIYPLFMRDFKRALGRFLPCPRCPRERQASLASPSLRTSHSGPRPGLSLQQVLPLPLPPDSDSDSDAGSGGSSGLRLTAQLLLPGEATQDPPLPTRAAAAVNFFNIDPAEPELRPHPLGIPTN
quantity: Ki

Case COC(=O)[C@@H]1C[C@H](OC(C)=O)C(=O)[C@H]2[C@@]1(C)CC[C@H]1C(=O)O[C@H](c3ccoc3)C[C@]21C , 5-hydroxytryptamine receptor 6 (Homo sapiens), Ki recorded as > 10 µM

###

molecular target: Metabotropic glutamate receptor 5 (Homo sapiens, UniProt P41594)
Sequence (P41594 whole entry): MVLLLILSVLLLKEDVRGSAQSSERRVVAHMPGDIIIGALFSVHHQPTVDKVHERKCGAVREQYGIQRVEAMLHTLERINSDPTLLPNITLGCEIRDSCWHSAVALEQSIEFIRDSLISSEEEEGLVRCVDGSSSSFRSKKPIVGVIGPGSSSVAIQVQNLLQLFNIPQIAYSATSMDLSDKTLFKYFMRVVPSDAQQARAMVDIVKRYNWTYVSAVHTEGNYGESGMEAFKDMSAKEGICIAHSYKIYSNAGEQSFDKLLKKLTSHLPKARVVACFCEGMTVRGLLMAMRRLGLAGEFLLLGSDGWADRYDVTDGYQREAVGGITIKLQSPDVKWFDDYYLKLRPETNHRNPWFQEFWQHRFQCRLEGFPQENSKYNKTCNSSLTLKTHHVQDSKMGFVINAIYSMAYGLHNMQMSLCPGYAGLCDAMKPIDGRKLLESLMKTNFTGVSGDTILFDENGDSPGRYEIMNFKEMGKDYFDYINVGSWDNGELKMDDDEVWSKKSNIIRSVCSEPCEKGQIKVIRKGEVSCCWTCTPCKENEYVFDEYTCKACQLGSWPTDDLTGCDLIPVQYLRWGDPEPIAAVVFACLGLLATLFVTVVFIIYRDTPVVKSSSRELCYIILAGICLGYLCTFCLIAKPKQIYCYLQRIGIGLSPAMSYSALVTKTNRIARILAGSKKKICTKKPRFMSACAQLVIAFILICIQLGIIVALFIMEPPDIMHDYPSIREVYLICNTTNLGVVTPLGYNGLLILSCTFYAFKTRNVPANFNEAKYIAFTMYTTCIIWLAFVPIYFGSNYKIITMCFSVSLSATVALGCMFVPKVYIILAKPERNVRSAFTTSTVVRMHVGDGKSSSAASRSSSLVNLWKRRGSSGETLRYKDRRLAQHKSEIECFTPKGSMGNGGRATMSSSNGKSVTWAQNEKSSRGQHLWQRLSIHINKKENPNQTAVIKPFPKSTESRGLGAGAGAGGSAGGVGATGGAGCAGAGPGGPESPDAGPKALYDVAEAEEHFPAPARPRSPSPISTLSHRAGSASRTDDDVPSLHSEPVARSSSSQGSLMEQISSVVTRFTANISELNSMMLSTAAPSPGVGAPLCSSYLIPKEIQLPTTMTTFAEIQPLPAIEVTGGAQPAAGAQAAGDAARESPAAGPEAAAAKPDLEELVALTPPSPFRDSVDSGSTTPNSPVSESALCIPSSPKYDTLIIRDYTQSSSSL
pKi: −log10 of the molar value.
quantity: pKi

Quick note, pKi for COC(=O)[C@@H]1C[C@H](OC(C)=O)C(=O)[C@H]2[C@@]1(C)CC[C@H]1C(=O)O[C@H](c3ccoc3)C[C@]21C landed at < 5.00

###

target: 5-hydroxytryptamine receptor 1B (Homo sapiens, UniProt P28222)
pKi: −log10 of the molar value.
quantity: pKi

Quick note, pKi for COC(=O)[C@@H]1C[C@H](OC(C)=O)C(=O)[C@H]2[C@@]1(C)CC[C@H]1C(=O)O[C@H](c3ccoc3)C[C@]21C landed at < 5.00

###

Molecular target: Vasopressin V1b receptor (Homo sapiens)
Sequence (P47901 whole entry): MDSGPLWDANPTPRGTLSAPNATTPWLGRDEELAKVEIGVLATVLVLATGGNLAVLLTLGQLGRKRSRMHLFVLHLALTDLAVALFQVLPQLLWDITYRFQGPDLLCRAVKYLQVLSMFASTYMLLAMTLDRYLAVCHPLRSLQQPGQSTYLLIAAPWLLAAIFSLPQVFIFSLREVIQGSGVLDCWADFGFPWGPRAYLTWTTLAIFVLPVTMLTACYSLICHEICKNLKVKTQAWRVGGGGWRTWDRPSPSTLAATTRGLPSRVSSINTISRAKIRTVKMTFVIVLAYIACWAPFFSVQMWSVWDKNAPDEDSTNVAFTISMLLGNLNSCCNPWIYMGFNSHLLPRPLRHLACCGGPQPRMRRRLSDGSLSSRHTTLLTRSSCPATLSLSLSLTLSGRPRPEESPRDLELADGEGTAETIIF
pKi: −log10 of the molar value.
quantity: pKi

Case COC(=O)[C@@H]1C[C@H](OC(C)=O)C(=O)[C@H]2[C@@]1(C)CC[C@H]1C(=O)O[C@H](c3ccoc3)C[C@]21C , Vasopressin V1b receptor (Homo sapiens), pKi recorded as < 5.00

###

target: Muscarinic acetylcholine receptor M3 (Homo sapiens)
quantity: Ki

Quick note, Ki for COC(=O)[C@@H]1C[C@H](OC(C)=O)C(=O)[C@H]2[C@@]1(C)CC[C@H]1C(=O)O[C@H](c3ccoc3)C[C@]21C landed at > 10 µM

###

Biological target: Muscarinic acetylcholine receptor M5 (Homo sapiens, UniProt P08912)
Sequence (P08912 whole entry): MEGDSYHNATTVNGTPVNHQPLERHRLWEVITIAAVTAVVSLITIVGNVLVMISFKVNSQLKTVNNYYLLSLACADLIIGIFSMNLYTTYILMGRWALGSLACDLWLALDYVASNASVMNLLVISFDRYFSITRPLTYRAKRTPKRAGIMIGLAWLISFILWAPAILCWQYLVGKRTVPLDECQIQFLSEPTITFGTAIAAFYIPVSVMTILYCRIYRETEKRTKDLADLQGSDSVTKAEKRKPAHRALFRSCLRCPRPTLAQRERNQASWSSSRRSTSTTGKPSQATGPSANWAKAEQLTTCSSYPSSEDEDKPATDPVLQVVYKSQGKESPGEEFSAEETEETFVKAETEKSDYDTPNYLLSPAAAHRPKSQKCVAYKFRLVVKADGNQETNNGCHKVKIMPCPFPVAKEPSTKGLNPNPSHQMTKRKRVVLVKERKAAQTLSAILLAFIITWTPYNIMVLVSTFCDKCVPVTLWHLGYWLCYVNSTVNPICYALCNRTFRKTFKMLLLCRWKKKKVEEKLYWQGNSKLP
quantity: Ki

Case COC(=O)[C@@H]1C[C@H](OC(C)=O)C(=O)[C@H]2[C@@]1(C)CC[C@H]1C(=O)O[C@H](c3ccoc3)C[C@]21C , Muscarinic acetylcholine receptor M5 (Homo sapiens, UniProt P08912), Ki recorded as > 10 µM

###

biological target: Metabotropic glutamate receptor 1 (Homo sapiens)
quantity: Ki

Case COC(=O)[C@@H]1C[C@H](OC(C)=O)C(=O)[C@H]2[C@@]1(C)CC[C@H]1C(=O)O[C@H](c3ccoc3)C[C@]21C , Metabotropic glutamate receptor 1 (Homo sapiens), Ki recorded as > 10 µM

###

target: 5-hydroxytryptamine receptor 1E (Homo sapiens, UniProt P28566)
pKi: −log10 of the molar value.
quantity: pKi

Quick note, pKi for COC(=O)[C@@H]1C[C@H](OC(C)=O)C(=O)[C@H]2[C@@]1(C)CC[C@H]1C(=O)O[C@H](c3ccoc3)C[C@]21C landed at < 5.00

###

target: Metabotropic glutamate receptor 6 (Homo sapiens, UniProt O15303)
Sequence (O15303 whole entry): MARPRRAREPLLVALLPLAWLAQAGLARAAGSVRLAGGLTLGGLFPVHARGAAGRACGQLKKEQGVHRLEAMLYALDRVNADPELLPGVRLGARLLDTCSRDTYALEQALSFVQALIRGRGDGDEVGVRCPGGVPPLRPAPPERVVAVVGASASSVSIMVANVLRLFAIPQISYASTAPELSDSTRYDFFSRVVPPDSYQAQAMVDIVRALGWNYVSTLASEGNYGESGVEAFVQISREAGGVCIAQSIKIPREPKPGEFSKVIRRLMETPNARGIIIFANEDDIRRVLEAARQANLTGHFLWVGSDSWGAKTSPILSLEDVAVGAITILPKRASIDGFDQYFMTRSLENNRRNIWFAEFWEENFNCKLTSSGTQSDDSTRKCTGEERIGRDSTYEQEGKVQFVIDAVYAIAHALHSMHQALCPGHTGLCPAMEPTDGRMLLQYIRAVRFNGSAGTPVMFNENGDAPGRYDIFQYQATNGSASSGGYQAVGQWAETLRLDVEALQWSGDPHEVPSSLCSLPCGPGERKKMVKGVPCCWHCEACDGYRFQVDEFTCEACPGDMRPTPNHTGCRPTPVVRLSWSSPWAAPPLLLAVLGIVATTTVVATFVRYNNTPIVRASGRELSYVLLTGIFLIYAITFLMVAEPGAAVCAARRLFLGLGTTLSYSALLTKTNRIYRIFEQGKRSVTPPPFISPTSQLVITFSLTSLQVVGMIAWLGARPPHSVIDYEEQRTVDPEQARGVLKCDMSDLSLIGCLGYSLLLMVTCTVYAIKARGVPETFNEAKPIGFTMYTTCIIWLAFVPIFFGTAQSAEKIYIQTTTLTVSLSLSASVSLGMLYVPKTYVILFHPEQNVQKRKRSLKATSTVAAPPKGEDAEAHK
pKi: −log10 of the molar value.
quantity: pKi

Quick note, pKi for COC(=O)[C@@H]1C[C@H](OC(C)=O)C(=O)[C@H]2[C@@]1(C)CC[C@H]1C(=O)O[C@H](c3ccoc3)C[C@]21C landed at < 5.00

###

target: Muscarinic acetylcholine receptor M4 (Homo sapiens, UniProt P08173)
pKi: −log10 of the molar value.
quantity: pKi

Quick note, pKi for COC(=O)[C@@H]1C[C@H](OC(C)=O)C(=O)[C@H]2[C@@]1(C)CC[C@H]1C(=O)O[C@H](c3ccoc3)C[C@]21C landed at < 5.00

###

molecular target: 5-hydroxytryptamine receptor 2C (Rattus norvegicus, UniProt P08909)
Sequence (P08909 whole entry): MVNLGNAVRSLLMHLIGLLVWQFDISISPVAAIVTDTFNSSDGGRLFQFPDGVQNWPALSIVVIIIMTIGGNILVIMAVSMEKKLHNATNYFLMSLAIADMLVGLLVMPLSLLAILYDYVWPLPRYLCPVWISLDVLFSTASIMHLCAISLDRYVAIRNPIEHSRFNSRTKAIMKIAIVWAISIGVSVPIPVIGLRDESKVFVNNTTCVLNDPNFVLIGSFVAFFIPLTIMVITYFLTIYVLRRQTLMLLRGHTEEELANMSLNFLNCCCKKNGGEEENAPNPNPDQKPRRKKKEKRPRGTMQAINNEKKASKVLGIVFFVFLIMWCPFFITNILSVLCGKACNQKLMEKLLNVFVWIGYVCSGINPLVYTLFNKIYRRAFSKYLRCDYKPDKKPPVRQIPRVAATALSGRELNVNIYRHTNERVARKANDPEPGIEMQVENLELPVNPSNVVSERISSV
pKi: −log10 of the molar value.
quantity: pKi

Quick note, pKi for COC(=O)[C@@H]1C[C@H](OC(C)=O)C(=O)[C@H]2[C@@]1(C)CC[C@H]1C(=O)O[C@H](c3ccoc3)C[C@]21C landed at < 5.00

###

biological target: Vasopressin V2 receptor (Homo sapiens, UniProt P30518)
pKi: −log10 of the molar value.
quantity: pKi

Quick note, pKi for COC(=O)[C@@H]1C[C@H](OC(C)=O)C(=O)[C@H]2[C@@]1(C)CC[C@H]1C(=O)O[C@H](c3ccoc3)C[C@]21C landed at < 5.00

###

Target: Muscarinic acetylcholine receptor M2 (Homo sapiens)
Sequence (P08172 whole entry): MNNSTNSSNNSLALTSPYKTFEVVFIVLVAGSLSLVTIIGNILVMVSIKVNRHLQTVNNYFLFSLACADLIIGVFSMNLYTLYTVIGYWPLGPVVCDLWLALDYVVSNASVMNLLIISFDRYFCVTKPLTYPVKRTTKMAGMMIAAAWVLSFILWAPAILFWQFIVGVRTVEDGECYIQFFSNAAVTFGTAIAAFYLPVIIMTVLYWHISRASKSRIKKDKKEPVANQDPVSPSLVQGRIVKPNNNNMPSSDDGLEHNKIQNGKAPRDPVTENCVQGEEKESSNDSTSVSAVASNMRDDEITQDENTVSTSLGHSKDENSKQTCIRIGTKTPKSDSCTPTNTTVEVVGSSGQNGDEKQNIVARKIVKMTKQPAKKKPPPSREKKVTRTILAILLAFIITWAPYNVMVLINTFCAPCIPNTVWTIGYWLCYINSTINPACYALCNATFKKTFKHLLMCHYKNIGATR
quantity: Ki

Quick note, Ki for COC(=O)[C@@H]1C[C@H](OC(C)=O)C(=O)[C@H]2[C@@]1(C)CC[C@H]1C(=O)O[C@H](c3ccoc3)C[C@]21C landed at > 10 µM
